System: Staphylococcus sp.
run-description: in vitro antibacterial evaluation, MIC by broth dilution
Format: cell-based
measurement-parameters: broth dilution, 18 hours at 35° C.
Entries and their measured MIC Coagulase Negative Staphylococcus (GC 4551) follow.
result-type: MIC Coagulase Negative Staphylococcus (GC 4551)

1) CC(c1ccc(F)cc1)C1NC(=O)CNC(=O)C(CO)NC(=O)C(C(O)C2CNC(=N)N2C2OC(CO)C(O)C(O)C2O)NC(=O)C(C(O)C2CNC(=N)N2)NC(=O)C(Cc2ccc(OC3OC(CO)C(OC4OC(CO)C(O)C(O)C4O)C(O)C3O)cc2)NC1=O (stereo not shown) [Example 261a]: >64 µg/mL
2) CCCOc1ccc(COCC2OC(OC3C(CO)OC(Oc4ccc(CC5NC(=O)C(C(C)c6ccccc6)NC(=O)CNC(=O)C(CO)NC(=O)C(C(O)C6CNC(=N)N6C6OC(CO)C(O)C(O)C6O)NC(=O)C(C(O)C6CNC(=N)N6)NC5=O)cc4)C(O)C3O)C(O)C(O)C2O)cc1 (stereo not shown): 0.5 to 1 µg/mL
3) CC(c1ccccc1)C1NC(=O)CNC(=O)C(CO)NC(=O)C(C(O)C2CNC(=N)N2C2OC(COC(=O)C(c3ccccc3)c3ccccc3)C(O)C(O)C2O)NC(=O)C(C(O)C2CNC(=N)N2)NC(=O)C(Cc2ccc(OC3OC(CO)C(OC4OC(CO)C(O)C(O)C4O)C(O)C3O)cc2)NC1=O (stereo not shown): >128 µg/mL
4) CC(c1ccccc1)C1NC(=O)CNC(=O)C(CO)NC(=O)C(C(O)C2CNC(=N)N2C2OC(CO)C(O)C(O)C2O)NC(=O)C(C(O)C2CNC(=N)N2)NC(=O)C(Cc2ccc(OC3OC(CO)C(OC4OC(CO)C(OCc5ccc(OCc6ccccc6)cc5)C(O)C4O)C(O)C3O)cc2)NC1=O (stereo not shown) [Example 231a]: 0.5 µg/mL

====

Test system: Escherichia coli
run-description: in vitro antibacterial evaluation, MIC by broth dilution
Format: cell-based
measurement-parameters: 18 hours at 35° C.
This section presents molecules with their documented MIC Escherichia coli (GC 4559) values.
result-type: MIC Escherichia coli (GC 4559)

1) Cc1ccc(COCC2OC(OC3C(CO)OC(Oc4ccc(CC5NC(=O)C(C(C)c6ccccc6)NC(=O)CNC(=O)C(CO)NC(=O)C(C(O)C6CNC(=N)N6C6OC(CO)C(O)C(O)C6O)NC(=O)C(C(O)C6CNC(=N)N6)NC5=O)cc4)C(O)C3O)C(O)C(O)C2O)cc1 (centres unmarked) [Example 234]: 64 µg/mL
2) CC(c1ccccc1)C1NC(=O)CNC(=O)C(CO)NC(=O)C(CC2CNC(=N)N2C2OC(CO)C(O)C(O)C2O)NC(=O)C(CC2CNC(=N)N2)NC(=O)C(Cc2ccc(OC3OC(CO)C(OC4OC(CO)C(O)C(O)C4OCc4ccc(OCc5ccccc5)cc4)C(O)C3O)cc2)NC1=O (centres unmarked) [Example 246c]: >128 µg/mL
3) CCOc1cc(COCC2OC(OC3C(CO)OC(Oc4ccc(CC5NC(=O)C(C(C)c6ccccc6)NC(=O)CNC(=O)C(CO)NC(=O)C(C(O)C6CNC(=N)N6C6OC(CO)C(O)C(O)C6O)NC(=O)C(C(O)C6CNC(=N)N6)NC5=O)cc4)C(O)C3O)C(O)C(O)C2O)ccc1OC (centres unmarked) [Example 238]: >64 µg/mL
4) CCCCCNC(=O)OC1C(CO)OC(OC2C(CO)OC(Oc3ccc(CC4NC(=O)C(C(C)c5ccccc5)NC(=O)CNC(=O)C(CO)NC(=O)C(C(O)C5CNC(=N)N5C5OC(CO)C(O)C(O)C5O)NC(=O)C(C(O)C5CNC(=N)N5)NC4=O)cc3)C(O)C2O)C(O)C1O (centres unmarked) [Example 251]: >64 µg/mL
5) CC(c1ccccc1)C1NC(=O)CNC(=O)C(CO)NC(=O)C(C(O)C2CNC(=N)N2C2OC(CO)C(O)C(O)C2O)NC(=O)C(C(O)C2CNC(=N)N2)NC(=O)C(Cc2ccc(OC3OC(CO)C(OC4OC(COCc5ccc(Oc6ccccc6)cc5)C(O)C(O)C4O)C(O)C3O)cc2)NC1=O (centres unmarked) [Example 236]: >64 µg/mL

====

Test system: Enterococcus sp.
run-description: in vitro antibacterial evaluation, MIC by broth dilution
Type: cell-based
measurement-parameters: broth dilution, 18 hours at 35° C.; strain GC 4557
MIC Enterococcus faecium (GC 4557) overview
result-type: MIC Enterococcus faecium (GC 4557) (µg/mL)

1) CC(C)CC(=O)OC1C(O)C(CO)OC(OC2C(CO)OC(Oc3ccc(CC4NC(=O)C(C(C)c5cccc(F)c5)NC(=O)CNC(=O)C(CO)NC(=O)C(C(O)C5CNC(=N)N5C5OC(CO)C(O)C(O)C5O)NC(=O)C(C(O)C5CNC(=N)N5)NC4=O)cc3)C(O)C2O)C1O (centres unmarked) [Example 264b]: 8
2) N=C1NCC(C(O)C2NC(=O)C(Cc3ccc(OC4OC(CO)C(OC5OC(CO)C(O)C6OC7(OC56)C5CC6CC(C5)CC7C6)C(O)C4O)cc3)NC(=O)C(CC3CCCCC3)NC(=O)CNC(=O)C(CO)NC(=O)C(C(O)C3CNC(=N)N3C3OC(CO)C(O)C(O)C3O)NC2=O)N1 (centres unmarked) [Example 106a]: 2
3) CC(c1ccccc1)C1NC(=O)CNC(=O)C(CO)NC(=O)C(C(O)C2CNC(=N)N2C2OC(CO)C(O)C(O)C2O)NC(=O)C(C(O)C2CNC(=N)N2)NC(=O)C(Cc2ccc(OC3OC(CO)C(OC4OC5COC(Cc6ccc(F)cc6)OC5C(O)C4O)C(O)C3O)cc2)NC1=O (centres unmarked): 2
4) CC(c1ccccc1)C1NC(=O)CNC(=O)C(CO)NC(=O)C(C(O)C2CNC(=N)N2C2OC(CO)C(O)C(O)C2O)NC(=O)C(C(O)C2CNC(=N)N2)NC(=O)C(Cc2ccc(OC3OC(CO)C(OC4OC5COC(c6ccccc6)OC5C(O)C4O)C(O)C3O)cc2)NC1=O (centres unmarked): 2
5) CC(C)CC(=O)OC1C(O)C(CO)OC(OC2C(CO)OC(Oc3ccc(CC4NC(=O)C(C(C)c5ccc(Cl)cc5)NC(=O)CNC(=O)C(CO)NC(=O)C(C(O)C5CNC(=N)N5C5OC(CO)C(O)C(O)C5O)NC(=O)C(C(O)C5CNC(=N)N5)NC4=O)cc3)C(O)C2O)C1O (centres unmarked) [Example 262b]: 2
6) CC(C)=CCCC(C)C1OCC2OC(OC3C(CO)OC(Oc4ccc(CC5NC(=O)C(C(C)c6ccccc6)NC(=O)CNC(=O)C(CO)NC(=O)C(C(O)C6CNC(=N)N6C6OC(CO)C(O)C(O)C6O)NC(=O)C(C(O)C6CNC(=N)N6)NC5=O)cc4)C(O)C3O)C(O)C(O)C2O1 (centres unmarked): 16
7) COc1ccc(COCC2OC(OC3C(CO)OC(Oc4ccc(CC5NC(=O)C(C(C)c6ccccc6)NC(=O)CNC(=O)C(CO)NC(=O)C(C(O)C6CNC(=N)N6C6OC(CO)C(O)C(O)C6O)NC(=O)C(C(O)C6CNC(=N)N6)NC5=O)cc4)C(O)C3O)C(O)C(O)C2O)cc1F (centres unmarked): 4
8) CC(c1ccccc1)C1NC(=O)CNC(=O)C(CO)NC(=O)C(C(O)C2CNC(=N)N2C2OC(CO)C(O)C(O)C2O)NC(=O)C(C(O)C2CNC(=N)N2)NC(=O)C(Cc2ccc(OC3OC(CO)C(OC4OC5COC(C6CCCC6)OC5C(O)C4O)C(O)C3O)cc2)NC1=O (centres unmarked): 2
9) CC=C(C)C(=O)OC1C(CO)OC(OC2C(CO)OC(Oc3ccc(CC4NC(=O)C(C(C)c5ccccc5)NC(=O)CNC(=O)C(CO)NC(=O)C(C(O)C5CNC(=N)N5C5OC(CO)C(O)C(O)C5O)NC(=O)C(C(O)C5CNC(=N)N5)NC4=O)cc3)C(O)C2O)C(O)C1O (centres unmarked) [Example 278b]: 8
10) CC(c1ccccc1)C1NC(=O)CNC(=O)C(CO)NC(=O)C(C(O)C2CNC(=N)N2C2OC(CO)C(O)C(O)C2O)NC(=O)C(C(O)C2CNC(=N)N2)NC(=O)C(Cc2ccc(OC3OC(CO)C(OC4OC5COC(C6CC=CCC6)OC5C(O)C4O)C(O)C3O)cc2)NC1=O (centres unmarked): 2
11) CCC(C)C(=O)OC1C(CO)OC(OC2C(CO)OC(Oc3ccc(CC4NC(=O)C(C(C)c5ccccc5)NC(=O)CNC(=O)C(CO)NC(=O)C(C(O)C5CNC(=N)N5C5OC(CO)C(O)C(O)C5O)NC(=O)C(C(O)C5CNC(=N)N5)NC4=O)cc3)C(O)C2O)C(O)C1O (centres unmarked) [Example 278c]: 8
12) CC(C)CC(=O)OC1C(O)C(CO)OC(OC2C(CO)OC(Oc3ccc(CC4NC(=O)C(C(C)c5cccs5)NC(=O)CNC(=O)C(CO)NC(=O)C(C(O)C5CNC(=N)N5C5OC(CO)C(O)C(O)C5O)NC(=O)C(C(O)C5CNC(=N)N5)NC4=O)cc3)C(O)C2O)C1O (centres unmarked) [Example 265b]: 8
13) CC(c1ccccc1)C1NC(=O)CNC(=O)C(CO)NC(=O)C(C(O)C2CNC(=N)N2C2OC(CO)C(O)C(O)C2O)NC(=O)C(C(O)C2CNC(=N)N2)NC(=O)C(Cc2ccc(OC3OC(CO)C(OC4OC(COCC=Cc5ccccc5)C(O)C(O)C4O)C(O)C3O)cc2)NC1=O (centres unmarked): 8
